experiment summary: Bioavailability in Sprague-Dawley rat at 2 mg/kg, iv and 10 mg/kg, po
Assay type: ADME, organism-based
measurement context: in vivo
reported property: bioavailability (%)

COc1ccc2c(O[C@@H]3C[C@H]4C(=O)N[C@]5(C(=O)NS(=O)(=O)C6CC6)C[C@H]5/C=C\CCCCCNC(=O)N4C3)cc(-c3nc(C(C)C)cs3)nc2c1; 20

[P] COc1ccc2c(O[C@@H]3C[C@H]4C(=O)N[C@]5(C(=O)NS(=O)(=O)C6(C)CC6)C[C@H]5/C=C\CCCCCNC(=O)N4C3)cc(-c3nc(C(C)C)cs3)nc2c1
[Q] COc1ccc2c(O[C@@H]3C[C@H]4C(=O)N[C@]5(C(=O)NS(=O)(=O)C6(C)CC6)C[C@H]5/C=C\CCCCCNC(=O)N4C3)cc(-c3nc(C(C)C)cs3)nc2c1C
Of P versus Q , which is the one with smaller reported bioavailability? Write the label of whichever entry you select.
Q
(Q: 11%, P: 54%)
